target: TIE1 (human) (UniProt P35590); assay: KINOMEscan competition binding; conditions: compound 10.0 µM
Sequence (P35590 whole entry, looked up): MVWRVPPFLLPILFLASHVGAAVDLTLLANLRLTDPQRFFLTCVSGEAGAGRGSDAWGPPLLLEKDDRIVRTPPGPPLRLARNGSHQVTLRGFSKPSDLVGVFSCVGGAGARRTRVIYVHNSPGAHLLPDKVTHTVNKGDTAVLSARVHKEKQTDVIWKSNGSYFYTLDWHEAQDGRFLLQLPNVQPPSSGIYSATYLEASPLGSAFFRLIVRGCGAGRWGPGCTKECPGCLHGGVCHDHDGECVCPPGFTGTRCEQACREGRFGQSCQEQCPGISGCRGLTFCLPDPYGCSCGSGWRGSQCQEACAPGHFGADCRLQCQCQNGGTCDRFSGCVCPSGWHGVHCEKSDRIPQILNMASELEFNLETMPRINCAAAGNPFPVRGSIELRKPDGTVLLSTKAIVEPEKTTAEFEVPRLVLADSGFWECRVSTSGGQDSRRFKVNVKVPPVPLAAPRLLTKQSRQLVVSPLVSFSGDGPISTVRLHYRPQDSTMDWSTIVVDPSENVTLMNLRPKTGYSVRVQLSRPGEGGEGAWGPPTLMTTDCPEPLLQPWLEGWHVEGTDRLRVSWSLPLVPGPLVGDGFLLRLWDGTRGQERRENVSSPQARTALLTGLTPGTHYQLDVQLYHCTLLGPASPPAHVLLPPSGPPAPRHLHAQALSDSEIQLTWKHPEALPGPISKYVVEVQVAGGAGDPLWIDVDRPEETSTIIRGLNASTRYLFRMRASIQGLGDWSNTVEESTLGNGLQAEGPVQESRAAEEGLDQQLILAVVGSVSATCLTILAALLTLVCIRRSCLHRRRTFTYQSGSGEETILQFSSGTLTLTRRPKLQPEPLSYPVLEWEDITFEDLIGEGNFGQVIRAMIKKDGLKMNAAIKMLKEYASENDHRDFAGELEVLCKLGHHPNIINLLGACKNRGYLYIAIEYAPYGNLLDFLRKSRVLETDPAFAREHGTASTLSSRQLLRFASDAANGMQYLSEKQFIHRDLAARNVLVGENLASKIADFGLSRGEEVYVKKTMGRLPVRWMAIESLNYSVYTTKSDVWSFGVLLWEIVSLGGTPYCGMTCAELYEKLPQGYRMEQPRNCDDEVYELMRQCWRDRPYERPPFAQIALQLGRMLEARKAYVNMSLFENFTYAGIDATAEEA
Each record here notes measured kinase still bound, per cent of control.
propertyLabel: kinase still bound, per cent of control

[[record]]
smilesstr = "NS(=O)(=O)c1ccc(-c2ccc(/C=C3/C(=O)NN(c4ccccc4)C3=O)o2)cc1"
recordedmeasurement = "25%"

[[record]]
smilesstr = "COc1cc(N2CCN(C)CC2)ccc1Nc1ncc2c(n1)N(C)c1ccccc1N(C)C2=O"
recordedmeasurement = "70%"

[[record]]
smilesstr = "CCN1CCN(Cc2cc(NC(=O)c3cccc4cc(-c5ccc(/C=C6\\SC(=O)NC6=O)o5)ccc34)cc(C(F)(F)F)c2)CC1"
recordedmeasurement = "5.8%"

[[record]]
smilesstr = "COc1cc(N2CCN(C)CC2)ccc1Nc1ncc2c(n1)Nc1ccccc1NC2=O"
recordedmeasurement = "24%"

[[record]]
smilesstr = "CN1CCN(c2ccc(C(=O)Nc3ncc4c(n3)N(C)c3ccccc3C(=O)N4C)cc2)CC1"
recordedmeasurement = "100%"

[[record]]
smilesstr = "O=C1NC(=O)/C(=C/c2c[nH]c(=O)c(-c3ccc(N4CCNCC4)nc3)c2)S1"
recordedmeasurement = "64%"

[[record]]
smilesstr = "CN1C(=O)c2ccccc2N(C)c2nc(NS(=O)(=O)c3ccc(N)cc3)ncc21"
recordedmeasurement = "100%"

[[record]]
smilesstr = "CN1C(=O)c2ccccc2N(C)c2nc(Nc3ccc(N4CCC(O)CC4)cc3)ncc21"
recordedmeasurement = "59%"

[[record]]
smilesstr = "COc1cc(N2CCN(C)CC2)ccc1Nc1ncc2c(n1)N(C)c1sccc1C(=O)N2C"
recordedmeasurement = "93%"

[[record]]
smilesstr = "COc1cc(N2CCC(O)CC2)ccc1Nc1ncc2c(n1)N1CCc3cccc(c31)C(=O)N2C"
recordedmeasurement = "94%"

[[record]]
smilesstr = "O=C1NC(=O)/C(=C/c2ccc(-c3ccc(F)cc3O)o2)S1"
recordedmeasurement = "25%"


###

target: RPS6KA2 KD1 (human) (UniProt Q15349); assay: KINOMEscan competition binding; conditions: compound 10.0 µM
Sequence (Q15349 whole entry, looked up): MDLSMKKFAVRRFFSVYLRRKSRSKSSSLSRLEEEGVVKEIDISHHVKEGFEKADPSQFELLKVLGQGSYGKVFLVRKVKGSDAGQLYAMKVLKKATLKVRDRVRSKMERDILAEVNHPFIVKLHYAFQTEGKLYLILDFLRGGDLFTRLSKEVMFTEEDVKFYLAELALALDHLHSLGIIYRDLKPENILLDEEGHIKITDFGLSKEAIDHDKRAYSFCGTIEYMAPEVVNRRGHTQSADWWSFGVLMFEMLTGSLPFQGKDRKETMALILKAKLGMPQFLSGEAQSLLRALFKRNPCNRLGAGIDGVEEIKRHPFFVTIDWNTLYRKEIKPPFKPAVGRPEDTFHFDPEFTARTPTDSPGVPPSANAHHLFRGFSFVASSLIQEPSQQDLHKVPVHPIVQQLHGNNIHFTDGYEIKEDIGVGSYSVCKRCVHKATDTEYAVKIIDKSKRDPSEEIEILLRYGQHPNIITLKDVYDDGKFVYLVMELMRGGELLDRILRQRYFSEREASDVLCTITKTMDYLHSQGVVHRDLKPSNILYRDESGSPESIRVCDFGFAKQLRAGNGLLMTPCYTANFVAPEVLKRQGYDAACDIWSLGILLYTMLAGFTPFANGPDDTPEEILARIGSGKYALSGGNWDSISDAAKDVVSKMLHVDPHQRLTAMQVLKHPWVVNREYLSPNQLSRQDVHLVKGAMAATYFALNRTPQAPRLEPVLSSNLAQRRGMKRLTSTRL
propertyLabel: kinase still bound, per cent of control (%)

[[record]]
smilesstr = "CN1C(=O)c2ccccc2N(C)c2nc(Nc3ccc(N4CCC(O)CC4)cc3)ncc21"
unitofmeasure = "%"
recordedmeasurement = 68

[[record]]
smilesstr = "COc1cc(N2CCN(C)CC2)ccc1Nc1ncc2c(n1)Nc1ccccc1NC2=O"
unitofmeasure = "%"
recordedmeasurement = 61

[[record]]
smilesstr = "N=C1NC(=O)/C(=C/c2ccc(-c3cncc4ccccc34)o2)S1"
unitofmeasure = "%"
recordedmeasurement = 26

[[record]]
smilesstr = "COc1cc(N2CCN(C)CC2)ccc1Nc1ncc2c(n1)N(C)c1sccc1C(=O)N2C"
unitofmeasure = "%"
recordedmeasurement = 82

[[record]]
smilesstr = "CN1CCN(c2ccc(C(=O)Nc3ncc4c(n3)N(C)c3ccccc3C(=O)N4C)cc2)CC1"
unitofmeasure = "%"
recordedmeasurement = 100

[[record]]
smilesstr = "O=C1NC(=O)/C(=C/c2c[nH]c(=O)c(-c3ccc(N4CCNCC4)nc3)c2)S1"
unitofmeasure = "%"
recordedmeasurement = 64

[[record]]
smilesstr = "COc1cc(N2CCC(O)CC2)ccc1Nc1ncc2c(n1)N1CCc3cccc(c31)C(=O)N2C"
unitofmeasure = "%"
recordedmeasurement = 77

[[record]]
smilesstr = "CN1C(=O)[C@H]2CCC[C@H]2N(C2CCCC2)c2nc(Nc3ccc(C(N)=O)cc3)ncc21"
unitofmeasure = "%"
recordedmeasurement = 24

[[record]]
smilesstr = "CN1C(=O)c2ccccc2N(C)c2nc(NS(=O)(=O)c3ccc(N)cc3)ncc21"
unitofmeasure = "%"
recordedmeasurement = 100

[[record]]
smilesstr = "COc1cc(N2CCN(C)CC2)ccc1Nc1ncc2c(n1)N(C)c1ccccc1N(C)C2=O"
unitofmeasure = "%"
recordedmeasurement = 82

